# Test system: RARa:RXR (NR concentration 270 nM, RXRa partner concentration 90 nM)
# Assay comment: PBM binding z-score (relative to random genomic background probes); higher = stronger binding; sequences stand for … in GC…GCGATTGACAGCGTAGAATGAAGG

Sequence	PBM binding z-score
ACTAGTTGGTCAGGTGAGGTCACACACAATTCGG	4.89
GCGACTGGGGCAAAGCGGGTTACCATAAGGTTGG	0.625
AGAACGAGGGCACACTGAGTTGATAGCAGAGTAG	0.924
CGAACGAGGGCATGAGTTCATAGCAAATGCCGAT	2.71
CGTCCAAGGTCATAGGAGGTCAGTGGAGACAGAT	5.94
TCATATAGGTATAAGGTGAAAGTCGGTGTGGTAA	1.62
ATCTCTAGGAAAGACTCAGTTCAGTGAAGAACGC	0.199
CCTTACGGGTCACGAGGTTATAGCTCGACGAGCG	6.5
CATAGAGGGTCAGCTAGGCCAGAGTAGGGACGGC	1.9
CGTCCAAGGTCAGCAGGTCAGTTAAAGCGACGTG	4.7
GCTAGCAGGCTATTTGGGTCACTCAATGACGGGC	1.01
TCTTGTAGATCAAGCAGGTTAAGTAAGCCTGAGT	0.198
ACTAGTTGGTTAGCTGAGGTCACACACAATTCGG	4.59
GCTCGGAGGCCAAGGTCAGAGCTTTGTCCGTAGA	1.82
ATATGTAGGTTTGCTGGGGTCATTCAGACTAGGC	4.72
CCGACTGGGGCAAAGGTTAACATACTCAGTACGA	4.64
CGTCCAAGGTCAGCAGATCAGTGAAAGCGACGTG	3.08
ACTTACGGGTCAACGAGGTTATCGCACGCGTATA	5.88
ATCTCTAGGTAAAGTTCCGTGAAAGATCGATAGA	0.388
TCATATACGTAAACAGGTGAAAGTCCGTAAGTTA	1.68
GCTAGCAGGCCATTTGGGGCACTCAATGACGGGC	-0.159
TCTTGTAGATCAACCAGGTTAAGAAAGCCTGAGT	0.664
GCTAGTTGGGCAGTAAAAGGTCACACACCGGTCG	6.26
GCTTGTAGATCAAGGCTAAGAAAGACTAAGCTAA	-0.679
GCTATTAGATGAAAGGGCAACCGAATGATTCTCG	0.795
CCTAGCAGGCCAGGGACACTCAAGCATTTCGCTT	-0.225
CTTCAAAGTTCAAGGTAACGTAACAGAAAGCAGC	3.32
